# Tested on: Enterobacteriaceae
# Assay: MIC of pure components in Mueller Hinton gelose
# Format: cell-based
# Applied Conditions: Enterobacteriaceae n = 13
# Source text: Following a method allowing the dissolution of the active blend in a Mueller Hinton gelose the MIC has been measured with pure components of the active blends 1 to 9.

| Compound | System Name | Reported Relation | MIC 90 [µg/mL] |
| --- | --- | --- | --- |
| C=CC(C)(O)CCC=C(C)C (stereo not shown) [Linalool, linalool] | Enterobacteriaceae | = | 10000 |
| C=C1CC/C=C(\C)CC[C@@H]2[C@@H]1CC2(C)C [Caryophyllene, beta-caryophyllene] | Enterobacteriaceae | > | 10000 |
| O=C/C=C/c1ccccc1 [CNM, trans-cinnamaldehyde] | Enterobacteriaceae | = | 600 |
| CC(=O)OCC=Cc1ccccc1 [Cinnamyl acetate, cinnamyl acetate] | Enterobacteriaceae | > | 10000 |

###

# Tested on: Other Gram - rods
# Assay: MIC of pure components in Mueller Hinton gelose
# Type: cell-based
# Applied Conditions: Other Gram - rods n = 15
Measured Quantity: MIC 90

| Compound | Measured |
| --- | --- |
| CC(=O)OCC=Cc1ccccc1 [Cinnamyl acetate, cinnamyl acetate] | > 10000 µg/mL |
| C=CC(C)(O)CCC=C(C)C (stereo not shown) | > 10000 µg/mL |
| C=C1CC/C=C(\C)CC[C@@H]2[C@@H]1CC2(C)C | > 10000 µg/mL |
| O=C/C=C/c1ccccc1 [CNM, trans-cinnamaldehyde] | 1250 µg/mL |
